Measured values drawn from PubChem BioAssay (NCI) for this set.

- System: HCT-15 colon
- test.protocol: NCI-60 one-dose screen, 48 h (100 = growth as untreated, 0 = no growth, -100 = all killed)
- test.conditions: 10 µM unless noted
About 83,000 compounds went through this panel and 20% of them were active in at least one assay; those are over-represented in the sample as a whole.
readout.name: growth (%)
Give the number; % is assumed, so skip it.

compound	readout.name	observed
COc1ccc2c(c1)c(C(=O)c1nc(-c3cn(C)c4ccccc34)no1)cn2C	growth	82.9

From here, focus on the item given below.
What does the data say about its growth? Entry: COc1ccc(/C=C2\COc3ccc(O)c(O)c3C2=O)c(OC)c1OC 1.33
